# Tested on: Tau phosphorylation at Ser396 (pSer396), SH-SY5Y cells
# procedure.text: Tau phosphorylation at Ser396 (pSer396) in SH-SY5Y cells, ELISA/western blot
# Type: cell-based, human
# assay.conditions: Homo sapiens; SH-SY5Y cells, overnight (16-18 h); read-out: pSer396 Tau EC50
endpoint.label: log10(EC50) (log10 of the value in nM)
Values below are the log10 of the recorded EC50, with nM as the unit.

INSERT INTO measurements (compound, readout_value) VALUES
  ('Cc1nnc(-c2ccc3cnc(NC(=O)N[C@H]4CCN(C)C[C@@H]4F)cc3c2)s1 [Compound 71]', 2.40),
  ('Cn1cc(-c2cc(F)c3cnc(NC(=O)[C@H]4CC[C@H](NCC(F)F)CC4)cc3c2)cn1 [Compound 103]', 3.11),
  ('Cc1ncc(-c2ccc3cnc(NC(=O)N4CC[C@H](NC(C)C)[C@@H](F)C4)cc3c2)o1 [Compound 53]', 3.36);

Give log10(EC50) for [2H]C1([2H])OC([2H])([2H])C([2H])([2H])N(CC(=O)Nc2cc3cc(-c4cnc(C)o4)ccc3cn2)C1([2H])[2H] [Compound 40]
2.84

Write down log10(EC50) measured for item CN[C@H]1CCN(C(=O)Nc2cc3cc(-c4nnc(C)s4)ccc3cn2)C[C@@H]1F [Compound 179]
3.11

Please list log10(EC50) recorded for the compound [2H]c1c([2H])c([2H])c(C(=O)Nc2cc3cc(-c4cnc(C)n4C)ccc3cn2)c(F)c1[2H] [Compound 157]
2.86

Provide one value: measured log10(EC50) of [2H]/C(C(=O)Nc1cc2cc(-c3cncn3C)ccc2cn1)=C(/[2H])c1c([2H])c([2H])c([2H])c([2H])c1[2H] [Compound 94]
2.39

Fill in reported log10(EC50) for this entry: [2H]C([2H])([2H])N([C@H]1CC[C@H](C(=O)Nc2cc3cc(-c4cnn(C)c4)ccc3cn2)CC1)C([2H])([2H])[2H] [Compound 145]
2.70

====

# target.or.test.system: UniProt P49841
# procedure.text: GSK3β kinase assay (Ser/Thr 09 peptide Z-lyte, FRET)
# Type: biochemical
# assay.conditions: method text calls the value IC50
endpoint.label: EC50 (nM)
Report as a plain number; the unit nM is understood.

Below are worked cases with known answers.
INSERT INTO results (structure_smiles, result_unit, readout_value) VALUES
  ('COCCN[C@H]1CC[C@H](C(=O)Nc2cc3cc(-c4nnc(C)s4)ccc3cn2)CC1', 'nM', 17),
  ('Cc1nnc(-c2ccc3cnc(NC(=O)N4[C@@H]5CC[C@H]4C[C@@H](NCC(F)F)C5)cc3c2)s1', 'nM', 154),
  ('[2H]c1c([2H])c(C(=O)Nc2cc3cc(-c4cnc(C)n4C)ccc3cn2)c([2H])c([2H])c1F', 'nM', 2600),
  ('Cc1ncc(-c2ccc3cnc(NC(=O)[C@H]4CC[C@H](N)CC4)cc3c2)o1', 'nM', 128),
  ('[2H]c1c(NC(=O)CN2CCOCC2)ncc2ccc(-c3cnc(C)o3)cc12', 'nM', 68),
  ('Cc1nnc(-c2ccc3cnc(NC(=O)N4CCC(NCC(F)F)CC4)cc3c2)s1', 'nM', 20),
  ('Cc1ncc(-c2cc3cc(NC(=O)[C@H]4CC[C@H](N(C)C)CC4)ncc3cc2F)o1', 'nM', 68),
  ('[2H]c1c([2H])c(C(=O)Nc2cc3cc(-c4cncn4C)ccc3cn2)c([2H])c([2H])c1OC([2H])([2H])[2H]', 'nM', 1010);

Give the reported EC50 for this molecule. "Cn1cc(-c2ccc3cnc(NC(=O)c4ccnc(N5CC[N+](C)([O-])CC5)c4)cc3c2)nn1"
703

Determine its reported EC50: "Cc1ncc(-c2ccc3cnc(NC(=O)C4CCN(CC(C)(F)F)CC4)cc3c2)o1"
41

Give recorded EC50. "Cc1nnc(-c2ccc3cnc(NC(=O)N4[C@@H]5CC[C@H]4C[C@H](N)C5)cc3c2)s1"
103

====

# Tested on: Tau phosphorylation at Ser396 (pSer396), SH-SY5Y cells
# procedure.text: Tau phosphorylation at Ser396 (pSer396) in SH-SY5Y cells, ELISA/western blot;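 also: cell lysates probed for reduced Tau pSer396 via ELISA (colorimetric) or western blot (chemiluminescence), both with one shared pSer396 antibody, EC50 for lowering phosphorylation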
# Type: cell-based, human
# assay.conditions: Homo sapiens; SH-SY5Y cells, overnight (16-18 h); read-out: pSer396 Tau EC50
endpoint.label: EC50 (nM)
Entry rule: numbers only, all in nM.

INSERT INTO measurements (compound, endpoint_label, readout_value) VALUES
  ('COC1CCN(CC(=O)Nc2cc3cc(-c4cn(C)nn4)ccc3cn2)CC1 [Compound 54]', 'EC50', 97);

Using the record for [2H]c1c([2H])c(C(=O)Nc2cc3cc(-c4cncn4C)ccc3cn2)c([2H])c([2H])c1F [Compound 81] , state its measured EC50.
2830

Given the compound [2H]C1([2H])OC([2H])([2H])C([2H])([2H])N(CC(=O)Nc2cc3cc(-c4cnc(C)s4)ccc3cn2)C1([2H])[2H] [Compound 41] , write its reported EC50.
869

Quote EC50 reported for [2H]c1c(NC(=O)C2CCN(C)CC2)ncc2ccc(-c3cnc(C)o3)cc12 [Compound 136] please.
309

====

# Test system: IL-6
# procedure.text: IL-6 inhibition in LPS-stimulated human peripheral blood mononuclear cells (HTRF)
# Format: cell-based
# assay.conditions: Homo sapiens, PBMC, read-out: percent value in parentheses below EC50 >10
endpoint.label: inhibition at 10 µM (%)
Could you give me the number in %? Just the number is fine.

Send back IL-6 inhibition at 10 µM of Cc1nnc(-c2ccc3cnc(NC(=O)N(C)C4CCN(C)CC4)cc3c2)s1 [Compound 29] only.
6

Print IL-6 inhibition at 10 µM for Cc1nnc(-c2ccc3cnc(NC(=O)N4CCC(NCC(F)F)CC4)cc3c2)s1 [Compound 168] .
14.2

Consider the compound Cc1nnc(-c2ccc3cnc(NC(=O)N4CCOCC4)cc3c2)s1 [Compound 36] tested on IL-6; state its inhibition at 10 µM.
4

====

# Tested on: IL-6
# procedure.text: IL-6 inhibition in LPS-stimulated human peripheral blood mononuclear cells (HTRF)
# Assay type: cell-based
# assay.conditions: Homo sapiens, PBMC, read-out: percent value in parentheses below EC50 >10
# Protocol: Fresh Normal PB MNC (Catalog # PB001, AllCells, Alameda, Calif.) were shipped overnight at 4° C. and resuspended in Roswell Park Memorial Institute (RPMI) 1640 Medium, with GlutaMAX Supplement (Catalog #61870127, ThermoFisher Scientific, Waltham, Mass.) supplemented with 1% Penicillin-Streptomycin (Catalog #151401633 ThermoFisher Scientific, Waltham, Mass.) and 1% fetal bovine serum (FBS) (Catalog #16140089, ThermoFisher Scientific, Waltham, Mass.) assay media. […]
Response key: fulfilled means inhibition at 10 µM >= 7%; not fulfilled means inhibition at 10 µM < 7%.

Below are worked cases with known answers.
INSERT INTO assay_data (molecule, class) VALUES
  ('Cc1nnc(-c2ccc3cnc(NC(=O)N4CCC(NC(CF)CF)CC4)cc3c2)s1 [Compound 121]', 'not fulfilled'),
  ('Cc1nnc(-c2ccc3cnc(NC(=O)N4[C@@H]5CC[C@H]4C[C@H](NCCC(F)(F)F)C5)cc3c2)s1 [Compound 153]', 'fulfilled'),
  ('Cc1nnc(-c2ccc3cnc(NC(=O)C4CCN(CCC(F)(F)F)CC4)cc3c2)s1 [Compound 38]', 'not fulfilled');

// inclusive: inhibition at 10 µM at least 7%? input: Cc1nnc(-c2ccc3cnc(NC(=O)C4(F)CCNCC4)cc3c2)s1 [Compound 25]
fulfilled

Confirm if inhibition at 10 µM reported for the molecule CNC1CCN(C(=O)Nc2cc3cc(-c4nnc(C)s4)ccc3cn2)CC1 [Compound 30] is 7% or above.
fulfilled

====

# target.or.test.system: GSK3β kinase (Homo sapiens (Human))
# Sequence (P49841 whole entry): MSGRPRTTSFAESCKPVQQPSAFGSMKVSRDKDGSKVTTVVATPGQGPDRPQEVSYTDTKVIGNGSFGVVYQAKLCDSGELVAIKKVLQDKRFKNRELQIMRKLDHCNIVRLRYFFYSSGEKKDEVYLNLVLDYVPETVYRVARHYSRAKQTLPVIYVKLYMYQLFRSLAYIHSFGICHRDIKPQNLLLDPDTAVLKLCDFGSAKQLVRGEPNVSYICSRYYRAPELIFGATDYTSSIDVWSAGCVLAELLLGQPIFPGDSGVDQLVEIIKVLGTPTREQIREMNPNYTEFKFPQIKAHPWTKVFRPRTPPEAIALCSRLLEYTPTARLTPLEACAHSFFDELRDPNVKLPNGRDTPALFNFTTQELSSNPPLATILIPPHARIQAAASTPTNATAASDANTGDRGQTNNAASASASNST
# procedure.text: GSK3β kinase assay (Ser/Thr 09 peptide Z-lyte, FRET);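 also: Coumarin/fluorescein emission ratio converted to percent phosphorylation against unphosphorylated (0%) and phosphorylated (100%) controls, 1 h compound incubation at room temperature, 11-point threefold dilutions from 10 µM, run in duplicate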
# assay.conditions: method text calls the value IC50
endpoint.label: pEC50
API: returns pEC50 as number; meaning -log10 of concentration in mol/L.

INSERT INTO results (structure_smiles, readout_value) VALUES
  ('[2H]c1c(NC(=O)CN2CCOCC2)ncc2ccc(-c3cnn(C)c3)cc12', 7.18),
  ('Cc1nnc(-c2ccc3cnc(NC(=O)N4CCC(N5CCN(C)CC5)CC4)cc3c2)s1', 7.05),
  ('Cc1ncc(-c2ccc3cnc(NC(=O)[C@H]4CC[C@H](CN5CCN(C)CC5)CC4)cc3c2)o1', 7.14);

Kindly review the next compound as well.
Fill in reported pEC50 for this entry: "Cn1cc(-c2cc(F)c3cnc(NC(=O)[C@H]4CC[C@H](N5CCOCC5)CC4)cc3c2)cn1"
6.88
